Test: NCI Yeast Anticancer Drug Screen. Data for the rad50 strain (AID 155);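 note: 0% = growth of vehicle-only cultures of the same strain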
Conditions: S. cerevisiae rad50 strain growth inhibition; at 50.0 µM (retest, dose inferred, filed as 5.0); active compounds read high
About 79,000 compounds went through this panel and 15% of them were active in at least one assay; those are over-represented in the sample as a whole.
Quantity kind: growth inhibition (%)
Value expressed in %; do not type the unit.

Record excerpt, results attached:
O=C(N/N=C/c1ccc2c(c1)OCO2)c1ccc([N+](=O)[O-])cc1; 2
S=C(SSSSC(=S)N1CCCCC1)N1CCCCC1; 92
C=CCOc1cc(NC(=S)c2sccc2C)ccc1Cl; 88

GET /values?readout=growth inhibition&item= O=C1OC(c2ccc3c(c2)OCO3)Sc2ccccc21 (configuration not stated)
24

GET /values?readout=growth inhibition&item= CN(/N=C\c1cccc([N+](=O)[O-])c1)C(c1cccc([N+](=O)[O-])c1)N(C)/N=C/c1cccc([N+](=O)[O-])c1 (configuration not stated)
34

GET /values?readout=growth inhibition&item= "O=C1CCCCO1"
3

GET /values?readout=growth inhibition&item= CCCOC1(C)CC(c2cc(OC)c(OC)c(OC)c2)c2cc3c(cc2O1)OCO3 (configuration not stated)
96

GET /values?readout=growth inhibition&item= "CC1(c2cccs2)C(C#N)(C#N)C1(C#N)C#N"
42

GET /values?readout=growth inhibition&item= "Cc1ccc(C(=O)CC(O)(C(F)(F)F)C(F)(F)F)cc1[N+](=O)[O-]"
95

GET /values?readout=growth inhibition&item= O=c1ncccn1[C@@H]1O[C@H](CO)[C@H](O)C1O (some centres not stated)
22

GET /values?readout=growth inhibition&item= COc1ccc(NC2Oc3cc4c(cc3C(c3cccc(OC)c3OC)C2C)OCO4)cc1 (configuration not stated)
17

GET /values?readout=growth inhibition&item= CCOC(=O)C(NNc1ccccc1)C(c1ccccc1)[P+](c1ccccc1)(c1ccccc1)c1ccccc1 (configuration not stated)
99

###

Assay: NCI Yeast Anticancer Drug Screen. Data for the bub3 strain (AID 167)
Details: S. cerevisiae bub3 mutant strain, at 50.0 µM (retest, dose inferred, filed as 5.0)
The panel holds about 79,000 compounds, 15% with a hit somewhere; the sample as a whole holds those more often. Calls of active or inactive are those of the source. Cut-off read from the data, not from the text of the source: active = growth inhibition above about 70%; inactive = the rest.
Permitted responses: true (1) = active, false (0) = inactive

Some solved entries appear below for comparison.
N#CC(C(=O)C(N)=O)c1ccc(Cl)cc1Cl (centres undefined); false (0)
CC(C)=CCc1ccc(O)cc1; true (1)
CCCC(=O)OCC1CC2C=CC1C2 (centres undefined); false (0)
C=C1C[C@H]2C=Nc3cc(OCCCOc4cc5c(cc4OC)C(=O)N4CC(=C)C[C@H]4C=N5)c(OC)cc3C(=O)N2C1; true (1)
COC(=O)C1(C)CCCC2(C)C3CCC4CC3(C=C4CO)CCC12 (centres undefined); true (1)

Answer briefly: the call reported for CCOC(=O)C(NS(=O)(=O)c1ccccc1)(C(F)(F)F)P(=O)(OCC(C)C)OCC(C)C (centres undefined) in this assay.
false (0)

Answer briefly: the call reported for COc1cccc2c1OC(c1cccc3ccccc13)C([N+](=O)[O-])=C2 (centres undefined) in this assay.
true (1)

Answer briefly: the call reported for "COC(=O)c1nc(=S)[nH]c(C(=O)OC)c1C(=O)c1ccc(O)c(OC)c1" in this assay.
true (1)

Answer briefly: the call reported for CCC#CC(O)(C(=O)OCC)C1CCCC1 (centres undefined) in this assay.
false (0)

###

Test: NCI Yeast Anticancer Drug Screen. Data for the mlh1 rad18 strain (AID 175)
Settings: S. cerevisiae mlh1 rad18 strain growth inhibition; at 5.0 µM (retest, dose inferred, filed as 0.5); active compounds read high
Method: Growth inhibition of yeast strains with defined genetic alterations is measured as a screen for potential anti-cancer activity. Selected strains with alterations in DNA damage repair or cell cycle control were exposed to compounds and growth inhibition was measured relative to vehicle treated controls. The strain used in this assay is mlh1 rad18
About 79,000 compounds went through this panel and 15% of them were active in at least one assay; those are over-represented in the sample as a whole. The source made the active and inactive calls. Cut-off read from the data, not from the text of the source: active = growth inhibition above about 70%; inactive = the rest.
Quantity kind: growth inhibition

Record excerpt, results attached:
CCCCN(c1ccccc1)c1ncnc2c1ncn2C; 5% (inactive)
O=S1OCCS1 (configuration not stated); 7% (inactive)
O=C1c2scc(-c3ccccc3)c2-n2cccc21; -16% (inactive)
CCNC(=S)NC1CCCCCCCCCCC1; 100% (active)
O=[N+]([O-])c1ccc(Sc2ccsc2)c([N+](=O)[O-])c1; 45% (inactive)

GET /values?readout=growth inhibition&item= O=C1c2ccccc2C(=O)C2(C(c3ccccc3)c3ccccc3)N=NCC12 (configuration not stated)
13% (inactive)

GET /values?readout=growth inhibition&item= "O=[N+]([O-])c1ccc(/C=C/[n+]2ccc3ccccc3c2)o1"
52% (inactive)

###

Test: NCI Yeast Anticancer Drug Screen. Data for the rad50 strain (AID 155);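 note: 0% = growth of vehicle-only cultures of the same strain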
Conditions: S. cerevisiae rad50 strain growth inhibition; at 5.0 µM (retest, dose inferred, filed as 0.5); active compounds read high
This is part of a sample that, as a whole, favours compounds with a hit. Of some 79,000 tested, about 15% had one in any assay.
Quantity kind: growth inhibition (%)
Value expressed in %; do not type the unit.

GET /values?readout=growth inhibition&item= "N#CC1(C#N)C(C#N)(C#N)C12CCCCCC2"
38

GET /values?readout=growth inhibition&item= "O=C(Nc1ccc(S(=O)(=O)NC2CCCCC2)cc1)OC1CCCCCCC1"
69

GET /values?readout=growth inhibition&item= "c1ccc(NNc2ccc3ccccc3n2)cc1"
3

GET /values?readout=growth inhibition&item= "Cc1nc(Cl)c(C#N)c(C)c1[N+](=O)[O-]"
-103

GET /values?readout=growth inhibition&item= O=C1C(Br)CCC1(c1ccccc1)c1ccccc1 (centres undefined)
5

GET /values?readout=growth inhibition&item= CC1SC(c2ccc(Cl)cc2)N2C(=O)C(C)SC(c3ccc(Cl)cc3)N2C1=O (centres undefined)
84

GET /values?readout=growth inhibition&item= "Cc1cc(N(CCC#N)CCC#N)ccc1/C(Sc1ccccc1)=C(\NC(=O)/C=C/c1ccccc1)C(=O)Sc1ccccc1"
28

GET /values?readout=growth inhibition&item= CN1CC[N+](C)(Cc2ccc(C[N+]3(C)CC[N+](C)(Cc4ccc(CCl)cc4)CC3)cc2)CC1 (centres undefined)
2

###

Experiment: NCI Yeast Anticancer Drug Screen. Data for the cln2 rad14 strain (AID 165);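 note: 0% = growth equal to vehicle treated cultures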
Conditions: S. cerevisiae cln2 rad14 strain, at 5.0 µM (retest, dose inferred, filed as 0.5), active compounds read high
About 79,000 compounds went through this panel and 15% of them were active in at least one assay; those are over-represented in the sample as a whole.
Quantity kind: growth inhibition (%)
Value expressed in %; do not type the unit.

Record excerpt, results attached:
CC(=O)OC(c1ccc(Cl)cc1)c1ccc(Cl)cc1; -17
CC(=O)OCC1OC(OC2CCCc3c(O)c4c(c(O)c32)C(=O)c2ccccc2C4=O)C(OC(C)=O)C(OC(C)=O)C1OC(C)=O (stereo unspecified); 2

GET /values?readout=growth inhibition&item= "Cc1cc(=O)c2cc(N=Cc3ccc([N+](=O)[O-])o3)ccc2o1"
0

GET /values?readout=growth inhibition&item= "CCOC(=O)c1cccc(C)c1C(=O)c1ccc(C)cc1C"
6

###

Assay: NCI Yeast Anticancer Drug Screen. Data for the cln2 rad14 strain (AID 165);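 note: 0% = growth equal to vehicle treated cultures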
Conditions: S. cerevisiae cln2 rad14 strain, at 5.0 µM (retest, dose inferred, filed as 0.5), active compounds read high
The panel holds about 79,000 compounds, 15% with a hit somewhere; the sample as a whole holds those more often.
Quantity kind: growth inhibition (%)
Value expressed in %; do not type the unit.

CCSc1c2ccccc2nc2c(OC)ccc(OC)c12; -7
COc1ccc(OC)c(NC(=O)CCCC(=O)CC(=O)c2cccnc2)c1; 53
O=[N+]([O-])C1CCCC(C2=CSC3CCCCC3N2)C1 (configuration not stated); -4
CCCCCSc1nc2ncnc(N)c2[nH]1; 4
NCCC1=CCCCC1; -7

Consider now this further compound.
GET /values?readout=growth inhibition&item= COC(=O)C(C#N)C(c1ccccc1)c1c[nH]c2ccccc12 (configuration not stated)
-52

###

Test: NCI Yeast Anticancer Drug Screen. Data for the bub3 strain (AID 167)
Conditions: S. cerevisiae bub3 mutant strain, at 5.0 µM (retest, dose inferred, filed as 0.5), active compounds read high
The panel holds about 79,000 compounds, 15% with a hit somewhere; the sample as a whole holds those more often.
Please note: T applies when growth inhibition is 10% or greater, and F applies otherwise.

Some solved entries appear below for comparison.
CC(CC=NCCN=CCC(C)CC(C)(C)C)CC(C)(C)C (stereo not drawn); F
Clc1ccnc2c1ccc1c(Cl)ccnc12; F
N#CCc1nc2c(s1)C(=O)c1ccccc1C2=O; T

API: above_or_equal(metric=growth inhibition, cutoff=10%) for item "O=[N+]([O-])c1ccc(CCCl)c(CCl)c1"
F

API: above_or_equal(metric=growth inhibition, cutoff=10%) for item "CC(=O)NNc1ccc(Cl)cc1[N+](=O)[O-]"
F

API: above_or_equal(metric=growth inhibition, cutoff=10%) for item "Cc1cccc(C)c1NC(=O)CCc1nnc(N)n1N"
F

API: above_or_equal(metric=growth inhibition, cutoff=10%) for item "Cc1cc(NC(=S)SCc2ccc3c(c2)OCO3)ccc1Cl"
T
